Source of measurements: patent USRE39197E1

Target: interaction between the integrin LFA-1 and its adhesion partner ICAM-1 (Homo sapiens, UniProt P20701)
Construct: Recombinant LFA-1 (100 μL of 0.7 μg/ml mL, ICOS Corporation) in D-PBS; purchased ICOS Corporation
Sequence (P20701 26-1170): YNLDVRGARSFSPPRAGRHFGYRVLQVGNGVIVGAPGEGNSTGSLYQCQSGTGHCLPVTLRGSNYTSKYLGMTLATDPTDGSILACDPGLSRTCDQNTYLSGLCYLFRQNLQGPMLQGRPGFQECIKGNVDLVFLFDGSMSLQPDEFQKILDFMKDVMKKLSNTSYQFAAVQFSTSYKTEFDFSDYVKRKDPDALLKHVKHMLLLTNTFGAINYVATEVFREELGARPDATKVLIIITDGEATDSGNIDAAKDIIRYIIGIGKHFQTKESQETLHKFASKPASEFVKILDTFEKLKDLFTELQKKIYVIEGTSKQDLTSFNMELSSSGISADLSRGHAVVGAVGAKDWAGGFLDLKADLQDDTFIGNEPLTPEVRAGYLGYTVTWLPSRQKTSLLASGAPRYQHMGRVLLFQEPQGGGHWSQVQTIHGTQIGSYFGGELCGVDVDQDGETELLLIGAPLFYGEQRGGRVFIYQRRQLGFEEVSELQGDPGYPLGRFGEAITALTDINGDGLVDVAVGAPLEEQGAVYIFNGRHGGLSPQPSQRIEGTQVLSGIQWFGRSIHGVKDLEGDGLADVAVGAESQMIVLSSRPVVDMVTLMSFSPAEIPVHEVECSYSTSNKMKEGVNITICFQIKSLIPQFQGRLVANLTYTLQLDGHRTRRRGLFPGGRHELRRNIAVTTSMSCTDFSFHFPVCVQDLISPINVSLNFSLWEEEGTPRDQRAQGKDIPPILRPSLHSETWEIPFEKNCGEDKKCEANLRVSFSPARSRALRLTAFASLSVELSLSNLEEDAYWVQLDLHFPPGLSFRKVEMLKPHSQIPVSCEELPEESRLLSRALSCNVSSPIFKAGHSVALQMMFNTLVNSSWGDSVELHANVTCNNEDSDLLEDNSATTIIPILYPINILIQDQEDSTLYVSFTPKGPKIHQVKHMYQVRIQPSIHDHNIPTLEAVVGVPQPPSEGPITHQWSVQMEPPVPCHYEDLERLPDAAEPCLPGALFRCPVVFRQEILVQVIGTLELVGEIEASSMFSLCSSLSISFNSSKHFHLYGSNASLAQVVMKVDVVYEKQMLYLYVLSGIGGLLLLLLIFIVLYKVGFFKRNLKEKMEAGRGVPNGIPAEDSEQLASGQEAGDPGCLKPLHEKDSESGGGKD
Sequence (P05107 23-769 partner): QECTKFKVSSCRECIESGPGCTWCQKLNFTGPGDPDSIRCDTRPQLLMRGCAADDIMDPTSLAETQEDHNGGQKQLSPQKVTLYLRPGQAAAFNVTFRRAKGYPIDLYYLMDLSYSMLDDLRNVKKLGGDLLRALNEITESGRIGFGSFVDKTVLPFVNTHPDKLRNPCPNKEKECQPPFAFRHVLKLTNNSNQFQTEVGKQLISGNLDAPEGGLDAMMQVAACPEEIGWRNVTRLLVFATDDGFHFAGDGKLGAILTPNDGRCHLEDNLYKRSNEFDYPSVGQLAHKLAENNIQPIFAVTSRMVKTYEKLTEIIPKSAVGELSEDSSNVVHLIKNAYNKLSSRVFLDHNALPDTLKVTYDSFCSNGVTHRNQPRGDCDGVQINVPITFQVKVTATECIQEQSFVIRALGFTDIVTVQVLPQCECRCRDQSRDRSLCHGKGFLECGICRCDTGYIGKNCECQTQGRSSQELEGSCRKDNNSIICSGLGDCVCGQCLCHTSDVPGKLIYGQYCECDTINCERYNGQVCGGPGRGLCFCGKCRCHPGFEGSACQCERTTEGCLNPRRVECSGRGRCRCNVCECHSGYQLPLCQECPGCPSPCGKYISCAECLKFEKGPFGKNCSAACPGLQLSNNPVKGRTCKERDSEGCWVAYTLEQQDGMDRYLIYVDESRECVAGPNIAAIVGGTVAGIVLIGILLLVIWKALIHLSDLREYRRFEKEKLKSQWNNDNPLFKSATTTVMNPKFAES
Experiment: ICAM-1/LFA-1 Biochemical Interaction Assay
Assay type: binding
Conditions: 4 μM compound; recombinant LFA-1, biotinylated ICAM-1/Ig
measurement_label: inhibition at 4 µM (%)

> print(dat)
                               input.smiles  unit.info  measured
1  CCN(CC)C(=O)CN1CCN(C(=O)/C=C/c2ccc(Sc3ccc(Cl)cc3Cl)c([N+](=O)[O-])c2)CC1          %        90
2  CC(=O)N1CCN(C(=O)/C=C/c2ccc(Sc3cccc(Cl)c3Cl)c([N+](=O)[O-])c2)CC1          %        91
3  CC(=O)N1CCN(C(=O)/C=C/c2ccc(Sc3ccccc3C)c([N+](=O)[O-])c2)CC1          %        88
4  O=C(C(=O)N1CCN(C(=O)/C=C/c2ccc(Sc3ccc(Cl)cc3Cl)c([N+](=O)[O-])c2)CC1)c1ccco1          %        91
5  CC(C)(C)OC(=O)N1CCN(C(=O)/C=C/c2ccc(Sc3ccc(Cl)cc3Cl)c([N+](=O)[O-])c2)CC1          %        91

----------
Test system: adherence of JY-8 cells (expressing LFA-1) to immobilized ICAM-1
Test: ICAM-1/JY-8 Cell Adhesion Assay
Type: cell-based, human
Conditions: Homo sapiens, JY-8, JY-8 cells on immobilized ICAM-1/Ig
pIC50: −log10 of the molar value.
measurement_label: pIC50

Guide cases for pIC50, answers given:
> print(dat)
                               input.smiles  measurement.label  measured
1  CC(=O)N1CCN(C(=O)/C=C/c2ccc(Sc3ccccc3CO)c([N+](=O)[O-])c2)CC1              pIC50      6.70
2  O=C(/C=C/c1ccc(Sc2ccc(Cl)cc2Cl)c(Cl)c1)N1CCN(c2ccccn2)CC1              pIC50      5.82

A: CC(=O)N1CCCN(C(=O)/C=C/c2ccc(Sc3ccccc3Br)c(Cl)c2)CC1
B: CC(=O)N1CCN(C(=O)/C=C/c2ccc(Sc3c(Cl)cccc3C=O)c(Cl)c2)CC1
C: CC(=O)N1CCN(C(=O)/C=C/c2ccc(Sc3ccccc3C(C)(C)C)c([N+](=O)[O-])c2)CC1
# rank by pIC50, ascending (min first) Use the labels to give the ranking in the order requested.
B, C, A

a: CC(=O)N1CCN(C(=O)/C=C/c2ccc(Sc3ccccc3Cl)c([N+](=O)[O-])c2)CC1
b: O=C(/C=C/c1ccc(Sc2ccc(Cl)cc2Cl)c(Cl)c1)NCCCCCCO
Thinking about recorded pIC50 values, which is higher, a or b ? API: response body contains the label of the selected item.
a
